- system_name: Cathepsin D (Cat D) (Homo sapiens, UniProt P07339)
- Sequence (P07339 65-412, species assumed): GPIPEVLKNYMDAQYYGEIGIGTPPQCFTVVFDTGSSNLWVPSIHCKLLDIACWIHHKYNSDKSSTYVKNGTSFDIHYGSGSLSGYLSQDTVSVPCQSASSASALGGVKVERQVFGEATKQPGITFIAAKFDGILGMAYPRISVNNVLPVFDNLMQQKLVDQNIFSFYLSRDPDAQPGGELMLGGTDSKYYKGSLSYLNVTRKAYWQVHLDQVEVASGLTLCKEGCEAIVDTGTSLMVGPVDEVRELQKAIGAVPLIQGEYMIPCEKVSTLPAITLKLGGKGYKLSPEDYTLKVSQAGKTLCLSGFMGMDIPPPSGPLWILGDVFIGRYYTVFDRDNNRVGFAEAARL
- experimental_protocol: In vitro enzymatic Cathepsin D (Cat D) FRET assay
- Type: biochemical
- test_context: read-out: CatD IC50
recorded_endpoint: IC50 (µM)

>>> recorded_result("COc1cnc(C(=O)Nc2ccc3c(c2)[C@@]2(C)N=C(N)C(C)(C)S(=O)(=O)[C@@H]2CCO3)c(C)n1")
1240

(a) Cc1cc(C(F)(F)F)cnc1C(=O)Nc1ccc2c(c1)[C@@]1(C)N=C(N)C(C)(C)S(=O)(=O)[C@@H]1CCO2
(b) Cc1cc(Cl)cnc1C(=O)Nc1ccc2c(c1)[C@@]1(C)N=C(N)C(C)(C)S(=O)(=O)[C@]1(F)CCO2
Which value of IC50 is greater, the one for a or the one for b ? Respond with the label that goes with your answer. a

###

- system_name: Beta Secretase enzyme (BACE) (Homo sapiens)
- Sequence (P56817 46-501): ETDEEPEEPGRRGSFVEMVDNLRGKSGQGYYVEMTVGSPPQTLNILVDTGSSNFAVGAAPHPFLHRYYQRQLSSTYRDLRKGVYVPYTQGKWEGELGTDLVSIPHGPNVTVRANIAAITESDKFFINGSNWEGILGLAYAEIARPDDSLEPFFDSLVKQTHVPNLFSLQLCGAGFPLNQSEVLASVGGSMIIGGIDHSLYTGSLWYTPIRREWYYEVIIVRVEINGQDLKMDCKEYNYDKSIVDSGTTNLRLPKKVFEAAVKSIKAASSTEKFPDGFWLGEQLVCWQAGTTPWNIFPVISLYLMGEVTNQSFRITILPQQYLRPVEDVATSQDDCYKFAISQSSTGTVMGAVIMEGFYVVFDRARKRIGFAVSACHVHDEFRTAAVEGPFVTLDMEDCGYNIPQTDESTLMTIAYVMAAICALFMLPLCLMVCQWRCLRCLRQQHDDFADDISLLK
- experimental_protocol: In vitro enzymatic BACE FRET assay
- Format: biochemical
- test_context: average IC50; read-out: BACE1 FRET assay IC50
pIC50: −log10 of the molar value.
recorded_endpoint: pIC50

In the examples that follow, each entry is paired with its recorded pIC50.
>>> recorded_result("CC1(C)C(N)=N[C@]2(C)c3cc(NC(=O)c4ncc(C#N)cc4Cl)ccc3OCC[C@H]2S1(=O)=O [Example 174]")
8.70
>>> recorded_result("COc1cnc2c(Nc3ccc4c(c3)[C@@]3(C)N=C(N)C(C)(C)S(=O)(=O)[C@@H]3CCO4)ncc(F)c2c1 [Example 177]")
7.74
>>> recorded_result("Cc1cc(C#N)cnc1C(=O)Nc1ccc2c(c1)[C@@]1(C)N=C(N)C(C)(C)S(=O)(=O)[C@@H]1CCO2 [Example 192]")
8.70
>>> recorded_result("COc1cnc(C(=O)Nc2ccc3c(c2)[C@@]2(C)N=C(N)C(C)(C)S(=O)(=O)[C@H]2CCC3)c(C)c1 [Example 32]")
7.14
>>> recorded_result("Cc1c(C(=O)Nc2ccc3c(c2)[C@@]2(C)N=C(N)C(C)(C)S(=O)(=O)[C@@H]2CCO3)nc2ccc(Cl)cn12 [Example 28]")
7.55

(P) CC1(C)C(N)=N[C@]2(C)c3cc(NC(=O)c4ccc(OCC5CC5)cn4)ccc3OCC[C@H]2S1(=O)=O [Example 175]
(Q) CC1(C)C(N)=N[C@]2(C)c3cc(NC(=O)c4ccc(Cl)cn4)ccc3CCC[C@@H]2S1(=O)=O [Example 38]
(R) COc1cnc(C(=O)Nc2ccc3c(c2)[C@@]2(C)N=C(N)C(C)(C)S(=O)(=O)[C@H]2CCO3)c(C)c1 [Example 161]
(S) Cc1cc(Cl)cnc1C(=O)Nc1ccc2c(c1)[C@@]1(C)N=C(N)C(C)(C)S(=O)(=O)[C@@H]1CC(C)(C)O2 [Example 190]
(T) Cc1nc(OCC(F)(F)F)cnc1C(=O)Nc1ccc2c(c1)[C@@]1(C)N=C(N)C(C)(C)S(=O)(=O)[C@@H]1CCO2 [Example 23]
Parameters: sort_field (pIC50), sort_dir (desc). Dear reader, please state the labels in the requested order. T, S, P, R, Q
(T: 8.52, S: 8.30, P: 8.05, R: 7.49, Q: 7.00)

(1) CC1(C)C(N)=N[C@]2(C)c3cc(NC(=O)c4ccc(Cl)cn4)ccc3OCC[C@@]2(F)S1(=O)=O [Example 66]
(2) Cc1cc(Cl)cnc1C(=O)Nc1ccc2c(c1)[C@@]1(C)N=C(N)C(C)(C)S(=O)(=O)[C@H]1CCO2 [Example 6b]
Which value of pIC50 is greater, the one for 1 or the one for 2 ? Respond with the label that goes with your answer. 2

Data credit: patent US9309263B2
